Data provenance: patent US9873693B2

- System: Phospho-T308 Akt
- measurementDescription: Phospho-T308 Akt detection using immunoblot (western blot) in PC-3 cells
- Format: cell-based
- assaySetup: Homo sapiens, at 2 μM, read-out: Percent Inhibition of phospho-Akt (308) By Western
readoutLabel: inhibition at 2 µM

Look up inhibition at 2 µM for this molecule: O=C(O)c1cnc2[nH]cc(-c3ccc(CNC(=O)c4cccn(Cc5ccc(F)c(F)c5)c4=O)s3)c2c1
< 25%

Look up inhibition at 2 µM for this molecule: NC(=O)C[C@@H](NC(=O)c1cccn(Cc2ccc(F)c(F)c2)c1=O)c1ccc(-c2c[nH]c3ncccc23)s1
> 75%

Look up inhibition at 2 µM for this molecule: O=C(NCc1cc(-c2c[nH]c3ncccc23)cs1)c1cccn(Cc2ccc(F)c(F)c2)c1=O
> 75%

Look up inhibition at 2 µM for this molecule: O=C(NCc1ccc(-c2c[nH]c3ncc(CO)cc23)s1)c1cccn(Cc2ccc(F)c(F)c2)c1=O
25 to 75%

Look up inhibition at 2 µM for this molecule: O=C(NC1CCCc2ccc(-c3c[nH]c4ncccc34)cc21)c1cccn(Cc2ccc(F)c(F)c2)c1=O (centres unmarked)
< 25%

Look up inhibition at 2 µM for this molecule: O=C(NCc1ccc(-c2c[nH]c3nccnc23)s1)c1cccn(Cc2ccc(F)c(F)c2)c1=O
25 to 75%

Look up inhibition at 2 µM for this molecule: CNC(=O)C[C@@H](NC(=O)c1cccn(Cc2ccc(F)c(F)c2)c1=O)c1ccc(-c2c[nH]c3ncccc23)s1
25 to 75%

Look up inhibition at 2 µM for this molecule: O=C(N[C@@H](COc1ccc2[nH]c(=O)[nH]c2c1)c1ccccc1)c1cccn(Cc2ccc(F)c(F)c2)c1=O
> 75%

---

Entries with reported IC50 on phosphorylated PDK1 (Homo sapiens (Human))
Sequence (O15530 51-360): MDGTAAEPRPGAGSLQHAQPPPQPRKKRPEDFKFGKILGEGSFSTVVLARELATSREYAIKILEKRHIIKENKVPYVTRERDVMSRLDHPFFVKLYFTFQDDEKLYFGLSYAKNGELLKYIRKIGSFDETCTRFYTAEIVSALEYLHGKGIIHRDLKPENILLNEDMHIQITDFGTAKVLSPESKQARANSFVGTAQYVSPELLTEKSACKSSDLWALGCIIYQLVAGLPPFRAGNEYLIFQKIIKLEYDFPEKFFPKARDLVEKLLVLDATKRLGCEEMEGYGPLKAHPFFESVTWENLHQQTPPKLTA

Worked cases, answers included:
INSERT INTO assay_data (compound, readoutlabel, value) VALUES
  ('CNC(=O)c1cc(-c2c[nH]c3ncccc23)cc(CNC(=O)c2cccn(Cc3ccc(F)c(F)c3)c2=O)n1 [Cpd 180]', 'IC50', '< 500 nM'),
  ('O=C1Nc2cc(/C=C/CNC(=O)c3cccn(Cc4cc(F)c(F)c(F)c4)c3=O)ccc2/C1=C\c1nccs1 [Cpd 202]', 'IC50', '< 500 nM'),
  ('NCc1cnc2[nH]cc(-c3cccc(CNC(=O)c4cccn(Cc5ccc(F)c(F)c5)c4=O)c3)c2c1 [Cpd 243]', 'IC50', '< 500 nM');

Query IC50 on phosphorylated PDK1 (Homo sapiens (Human)) for CNC(=O)C[C@@H](NC(=O)c1cccn(Cc2ccc(F)c(F)c2)c1=O)c1ncc(-c2c[nH]c3ncccc23)s1 [Cpd 137]
< 500 nM

Query IC50 on phosphorylated PDK1 (Homo sapiens (Human)) for O=C(NCc1cccc(-c2c[nH]c3ncccc23)c1)c1cccn(Cc2ccc(Cl)c(Cl)c2)c1=O [Cpd 324]
< 500 nM

---

- systemTested: dephosphorylated PDK1 (Homo sapiens (Human), UniProt O15530)
readoutLabel: IC50

INSERT INTO assay_data (chemicalsmiles, systemtested, value) VALUES
  ('COc1ccnc(NCCCCCNC(=O)c2cc(Br)cn(Cc3cccc(F)c3)c2=O)n1', 'dephosphorylated PDK1 (Homo sapiens (Human), UniProt O15530)', '< 500 nM'),
  ('O=C1Cc2ccc(/C=C/CNC(=O)c3cc(Cl)cn(Cc4cc(F)c(F)c(F)c4)c3=O)cc2N1', 'dephosphorylated PDK1 (Homo sapiens (Human), UniProt O15530)', '< 500 nM'),
  ('O=C(NCc1noc(-c2c[nH]c3ncccc23)n1)c1cccn(Cc2ccc(F)cc2)c1=O', 'dephosphorylated PDK1 (Homo sapiens (Human), UniProt O15530)', '< 500 nM'),
  ('C[C@@H](c1ccc(F)cc1)n1cccc(C(=O)NCc2noc(-c3c[nH]c4ncccc34)n2)c1=O', 'dephosphorylated PDK1 (Homo sapiens (Human), UniProt O15530)', '< 500 nM'),
  ('O=C1Cc2ccc(/C=C/CNC(=O)c3cccn(Cc4cc(F)c(F)c(F)c4)c3=O)cc2N1', 'dephosphorylated PDK1 (Homo sapiens (Human), UniProt O15530)', '< 500 nM'),
  ('O=C(NCc1cccc(-c2c[nH]c3ncccc23)c1)c1cccc(Nc2ccccc2)n1', 'dephosphorylated PDK1 (Homo sapiens (Human), UniProt O15530)', '< 500 nM'),
  ('Cc1ccc(Cn2cccc(C(=O)NCc3noc(-c4c[nH]c5ncccc45)n3)c2=O)cc1Cl', 'dephosphorylated PDK1 (Homo sapiens (Human), UniProt O15530)', '< 500 nM'),
  ('O=C(NCCOc1cc2[nH]c(=O)[nH]c2cc1F)c1cccn(Cc2ccc(F)c(F)c2)c1=O', 'dephosphorylated PDK1 (Homo sapiens (Human), UniProt O15530)', '< 500 nM');

// below: IC50 requested for another molecule
Query IC50 on dephosphorylated PDK1 (Homo sapiens (Human), UniProt O15530) for COc1ccnc(NCCC#CCCNC(=O)c2cccn(Cc3cccc(Cl)c3)c2=O)n1
< 500 nM

---

- System: Phospho-T308 Akt
- measurementDescription: Phospho-T308 Akt detection using immunoblot (western blot) in PC-3 cells
- Assay type: cell-based
- assaySetup: Homo sapiens, at 5 μM, read-out: Percent Inhibition of phospho-Akt (308) By Western
readoutLabel: inhibition at 5 µM

Look up inhibition at 5 µM for this molecule: O=C(NCc1cccc(-c2ccc3nccn3c2)c1)c1cccn(Cc2ccc(F)c(F)c2)c1=O
> 75%

Look up inhibition at 5 µM for this molecule: CC(C)(C)OC(=O)C[C@@H](NC(=O)c1cccn(Cc2ccc(F)c(F)c2)c1=O)c1nnc(-c2c[nH]c3ncccc23)o1
> 75%

Look up inhibition at 5 µM for this molecule: O=C(O)C[C@@H](NC(=O)c1cccn(Cc2ccc(F)c(F)c2)c1=O)c1nnc(-c2c[nH]c3ncccc23)o1
25 to 75%

Look up inhibition at 5 µM for this molecule: NC(=O)C[C@@H](NC(=O)c1cccn(Cc2ccc(F)c(F)c2)c1=O)c1ncc(-c2c[nH]c3ncccc23)o1
> 75%

Look up inhibition at 5 µM for this molecule: NC[C@@H](NC(=O)c1cccn(Cc2ccc(F)c(F)c2)c1=O)c1nc(-c2c[nH]c3ncccc23)cs1
25 to 75%

Look up inhibition at 5 µM for this molecule: O=C(NCc1cccc(-c2c[nH]c3ncc(F)cc23)c1)c1cccn(Cc2ccc(F)c(F)c2)c1=O
> 75%

Look up inhibition at 5 µM for this molecule: O=C(NCc1noc(-c2c[nH]c3ncccc23)n1)c1cc(Cl)cn(Cc2cccc(F)c2)c1=O
25 to 75%

---

- systemTested: phosphorylated PDK1 (Homo sapiens (Human))
pIC50: −log10 of the molar value.
readoutLabel: pIC50

Worked cases, answers included:
INSERT INTO results (chemicalsmiles, value) VALUES
  ('O=C1Nc2cc(/C=C/CNC(=O)c3cccn(Cc4cc(F)c(F)c(F)c4)c3=O)ccc2/C1=C/c1ncc[nH]1', '> 6.30'),
  ('NC[C@@H](NC(=O)c1cccn(Cc2ccc(F)c(F)c2)c1=O)c1nc(-c2c[nH]c3ncccc23)cs1', '> 6.30'),
  ('O=C(NCCCCCc1c[nH]c2ncccc12)c1cccn(Cc2cccc(Cl)c2)c1=O', '5.00 to 6.30');

// below: pIC50 requested for another compound
Query pIC50 on phosphorylated PDK1 (Homo sapiens (Human)) for N#Cc1cnc2[nH]cc(-c3cccc(CNC(=O)c4cccn(Cc5ccc(F)c(F)c5)c4=O)c3)c2c1
> 6.30

---

- Test system: Phospho-T308 Akt
- measurementDescription: Phospho-T308 Akt detection using immunoblot (western blot) in PC-3 cells
- Format: cell-based
- assaySetup: Homo sapiens, at 5 μM, read-out: Percent Inhibition of phospho-Akt (308) By Western
Each record here notes measured inhibition at 5 µM.

Worked cases, answers included:
INSERT INTO results (molecule, systemtested, value) VALUES
  ('C=CCOC(=O)C[C@@H](NC(=O)c1cccn(Cc2ccc(F)c(F)c2)c1=O)c1ncc(-c2c[nH]c3ncccc23)o1 [Cpd 301]', 'Phospho-T308 Akt', '> 75%'),
  ('COC(=O)C[C@H](NC(=O)c1cccn(Cc2ccc(F)c(F)c2)c1=O)c1nnc(-c2c[nH]c3ncccc23)o1 [Cpd 291]', 'Phospho-T308 Akt', '> 75%'),
  ('O=C(O)CC[C@@H](NC(=O)c1cccn(Cc2ccc(F)c(F)c2)c1=O)c1nc(-c2c[nH]c3ncccc23)co1 [Cpd 307]', 'Phospho-T308 Akt', '< 25%'),
  ('CNC(=O)C[C@@H](NC(=O)c1cccn(Cc2ccc(F)c(F)c2)c1=O)c1nnc(-c2c[nH]c3ncccc23)o1 [Cpd 299]', 'Phospho-T308 Akt', '25 to 75%'),
  ('COC(=O)c1cc(-c2cccc(CNC(=O)c3cccn(Cc4ccc(F)c(F)c4)c3=O)c2)c[nH]1 [Cpd 230]', 'Phospho-T308 Akt', '< 25%'),
  ('O=C(NCc1ccc(-c2c[nH]c3ncc(F)cc23)s1)c1cccn(Cc2ccc(F)c(F)c2)c1=O [Cpd 11]', 'Phospho-T308 Akt', '> 75%');

Query inhibition at 5 µM on Phospho-T308 Akt for O=C(NCc1cnc(-c2c[nH]c3ncccc23)s1)c1cccn(Cc2ccc(F)c(F)c2)c1=O [Cpd 134]
> 75%

Query inhibition at 5 µM on Phospho-T308 Akt for COC(=O)[C@@H](COc1ccc2[nH]c(=O)[nH]c2c1)NC(=O)c1cccn(Cc2ccc(F)c(F)c2)c1=O [Cpd 293]
25 to 75%

Query inhibition at 5 µM on Phospho-T308 Akt for O=C(NCc1cccc(-c2cn[nH]c2)c1)c1cccn(Cc2ccc(F)c(F)c2)c1=O [Cpd 222]
25 to 75%

Query inhibition at 5 µM on Phospho-T308 Akt for O=C(NCc1noc(-c2c[nH]c3ncccc23)n1)c1cc(Cl)cn(Cc2ccc(Cl)cc2)c1=O [Cpd 309]
25 to 75%

Query inhibition at 5 µM on Phospho-T308 Akt for C[C@@H](c1ccc(Cl)cc1)n1cccc(C(=O)NCc2noc(-c3c[nH]c4ncccc34)n2)c1=O [Cpd 300]
> 75%

Query inhibition at 5 µM on Phospho-T308 Akt for O=C(NCc1cccc(-c2c[nH]c3ncc(CO)cc23)c1)c1cccn(Cc2ccc(F)c(F)c2)c1=O [Cpd 225]
> 75%

Query inhibition at 5 µM on Phospho-T308 Akt for O=C(NCc1noc(-c2c[nH]c3ncccc23)n1)c1cccn(Cc2ccc(F)cc2)c1=O [Cpd 303]
> 75%

Query inhibition at 5 µM on Phospho-T308 Akt for NC(=O)C[C@@H](NC(=O)c1cccn(Cc2ccc(F)c(F)c2)c1=O)c1nnc(-c2c[nH]c3ncccc23)o1 [Cpd 289]
< 25%

Query inhibition at 5 µM on Phospho-T308 Akt for NC[C@@H](NC(=O)c1cccn(Cc2ccc(F)c(F)c2)c1=O)c1nnc(-c2c[nH]c3ncccc23)o1 [Cpd 283]
25 to 75%
